Experimental system: native mouse MET on living mouse cells (mouse, UniProt P16056 25-1379)
Measurement description: cell-based or functional assay
Property measured: cell scattering score, MLP29, 3.000 nM (score 0-4)
Give a bare numeral; the unit score 0-4 is implied.

[[record]]
binder = "chimeric llama-human IgG1 mAb 71A3 (antibody, V domains shown) VH: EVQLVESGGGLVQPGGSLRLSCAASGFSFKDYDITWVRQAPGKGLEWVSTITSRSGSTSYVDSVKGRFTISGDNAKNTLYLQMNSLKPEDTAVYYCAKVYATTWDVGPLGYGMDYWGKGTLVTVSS VL: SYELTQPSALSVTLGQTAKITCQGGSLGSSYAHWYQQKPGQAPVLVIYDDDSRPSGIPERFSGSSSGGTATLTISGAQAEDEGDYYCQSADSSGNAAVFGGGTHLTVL"
data_value = 4

[[record]]
binder = "chimeric llama-human IgG1 mAb 76H10 (antibody, V domains shown) VH: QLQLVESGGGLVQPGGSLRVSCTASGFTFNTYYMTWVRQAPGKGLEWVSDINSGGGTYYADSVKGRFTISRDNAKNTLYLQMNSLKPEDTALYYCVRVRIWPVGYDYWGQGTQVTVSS VL: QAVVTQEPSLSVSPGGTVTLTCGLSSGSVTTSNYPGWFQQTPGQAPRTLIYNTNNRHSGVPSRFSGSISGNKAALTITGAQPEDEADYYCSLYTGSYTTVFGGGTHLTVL"
data_value = 2


The recorded cell scattering score, MLP29, 3.000 nM for chimeric llama-human IgG1 mAb 71C3 (antibody, V domains shown) VH: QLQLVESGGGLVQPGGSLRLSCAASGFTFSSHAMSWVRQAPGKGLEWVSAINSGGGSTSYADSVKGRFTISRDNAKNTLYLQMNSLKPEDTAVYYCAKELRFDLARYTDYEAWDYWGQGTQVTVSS VL: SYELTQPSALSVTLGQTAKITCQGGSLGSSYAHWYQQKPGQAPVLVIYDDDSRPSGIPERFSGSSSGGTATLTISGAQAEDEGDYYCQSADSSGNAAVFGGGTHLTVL is 4
